# test-system: SUV39H2 (Homo sapiens (Human), UniProt Q9H5I1)
# Sequence (Q9H5I1 whole entry): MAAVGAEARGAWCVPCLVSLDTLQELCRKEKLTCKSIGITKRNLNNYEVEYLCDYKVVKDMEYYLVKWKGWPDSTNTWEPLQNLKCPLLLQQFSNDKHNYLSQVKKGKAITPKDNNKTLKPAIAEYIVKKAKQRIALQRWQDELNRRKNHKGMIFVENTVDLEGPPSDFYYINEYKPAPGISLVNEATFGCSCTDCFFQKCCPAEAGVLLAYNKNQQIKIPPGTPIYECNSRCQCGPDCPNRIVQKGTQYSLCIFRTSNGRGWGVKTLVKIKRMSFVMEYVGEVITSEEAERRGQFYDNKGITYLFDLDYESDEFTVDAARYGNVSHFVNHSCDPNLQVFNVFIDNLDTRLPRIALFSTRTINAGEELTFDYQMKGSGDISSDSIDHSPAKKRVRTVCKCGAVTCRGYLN
# assay-info: biochemical
# Type: biochemical
# test-settings: 3H-SAM 100 nM, H3 Histone Peptide 350 nM, room temperature 3 hours
Listing of entries alongside the reported pIC50.
Scale for pIC50: -log10 of concentration given in mol/L; no unit attached.

# annotated cases, reported pIC50 shown
COc1cc(OC)c(-c2cn3ccc(N4CCN(c5cnc(N6CCCC(N)C6)nc5)CC4)cc3n2)cc1Cl (stereo not shown) ... 8.00
COc1cc(OC)c(-c2cn3ccc(N[C@H]4CC[C@H](NCc5ccccc5F)CC4)cc3n2)cc1Cl ... 7.07
COc1cc(OC)c(-c2cn3ccc(N4CCCN(CC5CCCC5)CC4)cc3n2)cc1Cl ... 7.86

Alright, here's another molecule for you.
# input Fill blank: measured pIC50 of the molecule COc1cc(OC)c(-c2cn3ccc(N4CCN(C(C)=O)C(C)C4)cc3n2)cc1Cl (stereo not shown) is ____.
# output 8.71

# credit: patent US10508109B2
